TARGET ENTITY: HLA-DRB5*0101 molecule (B5) (Homo sapiens, UniProt P01903+Q30154)
Construct: endogenous in cells
ASSAY DETAILS: biochemical
Format: binding
pIC50: −log10 of the molar value.

| MOLECULE | pIC50 |
| --- | --- |
| CC[C@H](C)[C@H](NC(=O)[C@H](CS)NC(=O)[C@H](CC(C)C)NC(=O)[C@H](CC(=O)O)NC(=O)[C@H](CCCNC(=N)N)NC(=O)[C@H](Cc1ccccc1)NC(=O)[C@H](C)NC(=O)[C@H](Cc1ccccc1)NC(=O)[C@H](CC(=O)O)NC(=O)[C@@H](N)Cc1ccc(O)cc1)C(=O)N[C@H](C(=O)N[C@@H](Cc1ccc(O)cc1)C(=O)N[C@@H](CCCNC(=N)N)C(=O)N[C@@H](CC(=O)O)C(=O)NCC(=O)O)C(C)C [E6 50-64, Y D F A F R D L C I V Y R D G] | 7.22 |

Where these numbers come from: patent US7488791B2
